These data points were gathered from PubChem BioAssay (NCI).

test system: KM12 colon; assay: NCI tumour cell line growth inhibition, 48 h
quantity-kind: TGI

Record excerpt, results attached:
>  <molecule>
N#Cc1ccc(C2OCC3CC=CCC3CO2)cc1 (centres undefined)

>  <TGI>
> 100 µM

$$$$
>  <molecule>
CC1(C=O)CC(CCc2ccccc2)NC1Cc1ccc(O)cc1 (centres undefined)

>  <TGI>
37.5 µM

$$$$
>  <molecule>
Cc1cn(C2CC(O)C(Cn3nncc3Cn3cnc4c(N)ncnc43)O2)c(=O)[nH]c1=O (centres undefined)

>  <TGI>
> 100 µM

$$$$

Looking for the measured TGI of "O=c1cccccc1[O-].O=c1cccccc1[O-].O=c1cccccc1[O-].[Nd+3]" , can you help? > 100 µM

Looking for the measured TGI of "COc1cccc(CCn2c(N)c(-c3cc(Cl)cc(Cl)c3)c3ccc([N+](=O)[O-])cc3c2=O)c1" , can you help? > 100 µM

Looking for the measured TGI of "N#Cc1c(C#N)c(SSc2c(C#N)c(C#N)c(N)n2-c2cccc3ccccc23)n(-c2cccc3ccccc23)c1N" , can you help? > 100 µM

Looking for the measured TGI of CC(=O)OC(C(=O)[O][Ge]([CH3])([CH3])[CH3])c1ccccc1 (centres undefined) , can you help? > 100 µM

Looking for the measured TGI of Cc1ccc(C2=NN(c3ccc(S(=O)(=O)NC(=O)NCc4ccccc4)cc3)C(c3ccc(N(C)C)cc3)C2)c(C)c1 (centres undefined) , can you help? 15.4 µM

Looking for the measured TGI of "Cc1[nH]c(C(=O)Nc2cccc(OC3CCNCC3)c2)c(Cl)c1Cl" , can you help? 3.73 µM

---

Consider the following compounds and their measured TGI readings.
tested on: KM20L2 colon; experiment: NCI tumour cell line growth inhibition, 48 h

Record excerpt, results attached:
>  <compound>
CC1=C2CC[C@@]3(C)C(=CCC3O)C2(C)CCC1=O (stereo partly specified)

>  <value-measured>
> 100 µM

$$$$
>  <compound>
CCOC(=O)C(C(=O)OCC)c1cc(-c2cc3ccccc3o2)oc(=O)c1C#N

>  <value-measured>
37.5 µM

$$$$
>  <compound>
COC(=O)C(=O)C(C(=O)OC)C(=O)C(=O)Nc1cc(Cl)c(C)cc1S(=O)(=O)O (stereo unspecified)

>  <value-measured>
> 100 µM

$$$$
>  <compound>
N#Cc1ccc(C2OCC3CC=CCC3CO2)cc1 (stereo unspecified)

>  <value-measured>
> 100 µM

$$$$
>  <compound>
COc1ccccc1/C=C1\CCC(Cc2ccccc2)(CN(C)C)C1=O (stereo unspecified)

>  <value-measured>
2.34 µM

$$$$

Below: the item to evaluate.
Requested read-out TGI, target or system KM20L2 colon, entry "COc1cc2ccnc(C#N)c2cc1OCc1ccccc1" > 100 µM

---

test system: A498 renal; test: NCI tumour cell line growth inhibition, 48 h
Consider the following compounds and their measured TGI readings.
Numeric only. Scale: µM

>  <sample-smiles>
Cc1csc2nc(-c3cc([N+](=O)[O-])c(Cl)cc3Cl)c(/C=N/N=C(N)N)n12

>  <test-system>
A498 renal

>  <value-units>
µM

>  <TGI>
35

$$$$

Looking for the measured TGI of "C[C@@]12CC[C@@H](O)C[C@@H]1CC[C@H]1[C@H]2CC[C@@]2(C)[C@H](c3ccc(=O)oc3)CC[C@@]12O" , can you help? 0.0445
